- experimental-system: Protein kinase C beta type (Homo sapiens)
- test-name: Inhibition of PKCbeta2 (unknown origin) at 50 nM by Z'LYTE screening method relative to control
parameter: inhibition (%)
Report only the number, with the unit % understood.

Check out these entries, answers already filled in.
compound	parameter	units-symbol	reported-result
O=c1c2ccccc2[se]n1-c1nc(N[C@H]2CC[Se]C2)c2nc[nH]c2n1	inhibition	%	8
O=c1c2ccccc2[se]n1-c1nc(NC2CCCCC2)c2nc[nH]c2n1	inhibition	%	62
O=C1c2ccccc2CN1c1nc(N[C@H]2CC[Se]C2)c2nc[nH]c2n1	inhibition	%	9
O=C1c2ccccc2CN1c1nc(NC2CCCCC2)c2nc[nH]c2n1	inhibition	%	5
O=c1c2ccccc2[se]n1-c1nc(N[C@@H]2C[C@H]3CC[C@@H]2C3)c2nc[nH]c2n1	inhibition	%	62
O=c1c2ccccc2[se]n1-c1nc(N[C@H]2CCOC2)c2nc[nH]c2n1	inhibition	%	7
C[C@@H]1[C@H]2C[C@@H](C[C@H]1Nc1nc(-n3[se]c4ccccc4c3=O)nc3[nH]cnc13)C2(C)C	inhibition	%	5
CCCNc1nc(-n2[se]c3ccccc3c2=O)nc2[nH]cnc12	inhibition	%	95

Exam item: Consider the compound O=c1c2ccccc2sn1-c1nc(NC2CCSC2)c2nc[nH]c2n1 (stereo not given) and give its measured inhibition.
Marked response: 81

Exam item: Can you handle O=c1c2ccccc2sn1-c1nc(NC2CCCC2)c2nc[nH]c2n1 next?
Marked response: 13

====

- experimental-system: UniProt P05129
- test-name: Inhibition of PKC gamma (unknown origin) at 50 nM by Z'LYTE screening method relative to control
Decision: inhibition >= 2% yields Condition met, all other cases yield Condition not met.

Examples from the recorded data:
compound	assigned-category
CCN(CC)CCCC(C)Nc1nc(N2Cc3ccccc3C2=O)nc2[nH]cnc12 (configuration not stated)	Condition not met
O=c1c2ccccc2[se]n1-c1nc(NC2CCCCC2)c2nc[nH]c2n1	Condition met
O=c1c2ccccc2[se]n1-c1nc(N[C@H]2CC[Se]C2)c2nc[nH]c2n1	Condition met
O=c1c2ccccc2[se]n1-c1nc(N[C@@H]2C[C@H]3CC[C@@H]2C3)c2nc[nH]c2n1	Condition not met
O=C1c2ccccc2CN1c1nc(NC2CCCCC2)c2nc[nH]c2n1	Condition not met

We next turn to a different compound, shown below.
Exam item: Given CCCNc1nc(-n2[se]c3ccccc3c2=O)nc2[nH]cnc12 , state whether its inhibition is at least 2%.
Marked response: Condition not met

====

- experimental-system: Vascular endothelial growth factor receptor 1 (Homo sapiens)
- test-name: Inhibition of FLT1/VEGFR1(unknown origin) at 50 nM by Z'LYTE screening method relative to control
parameter: inhibition (%)
Report only the number, with the unit % understood.

Check out these entries, answers already filled in.
molecule	inhibition (%)
O=c1c2ccccc2[se]n1-c1nc(N[C@@H]2C[C@H]3CC[C@@H]2C3)c2nc[nH]c2n1	1
CCN(CC)CCCC(C)Nc1nc(N2Cc3ccccc3C2=O)nc2[nH]cnc12 (configuration not stated)	2
O=C1c2ccccc2CN1c1nc(N[C@H]2CC[Se]C2)c2nc[nH]c2n1	1
C[C@@H]1[C@H]2C[C@@H](C[C@H]1Nc1nc(-n3[se]c4ccccc4c3=O)nc3[nH]cnc13)C2(C)C	1
CCCNc1nc(-n2[se]c3ccccc3c2=O)nc2[nH]cnc12	0
CCN(CC)CCCC(C)Nc1nc(-n2[se]c3ccccc3c2=O)nc2[nH]cnc12 (configuration not stated)	1
O=c1c2ccccc2[se]n1-c1nc(Nc2ccccc2)c2nc[nH]c2n1	1
O=c1c2ccccc2[se]n1-c1nc(N[C@H]2CCOC2)c2nc[nH]c2n1	0

Exam item: Consider the molecule O=c1c2ccccc2[se]n1-c1nc(NC2CCCCC2)c2nc[nH]c2n1 and give its measured inhibition.
Marked response: 2

Exam item: Can you handle O=C1c2ccccc2CN1c1nc(NC2CCCCC2)c2nc[nH]c2n1 next?
Marked response: 0

Exam item: Can you handle O=c1c2ccccc2[se]n1-c1nc(N[C@H]2CC[Se]C2)c2nc[nH]c2n1 next?
Marked response: 0

Exam item: Can you handle O=C1c2ccccc2CN1c1nc(NC2CCCC2)c2nc[nH]c2n1 next?
Marked response: 1

====

- experimental-system: Serine/threonine-protein kinase PAK 1 (Homo sapiens) (UniProt Q13153)
- Sequence (Q13153 whole entry): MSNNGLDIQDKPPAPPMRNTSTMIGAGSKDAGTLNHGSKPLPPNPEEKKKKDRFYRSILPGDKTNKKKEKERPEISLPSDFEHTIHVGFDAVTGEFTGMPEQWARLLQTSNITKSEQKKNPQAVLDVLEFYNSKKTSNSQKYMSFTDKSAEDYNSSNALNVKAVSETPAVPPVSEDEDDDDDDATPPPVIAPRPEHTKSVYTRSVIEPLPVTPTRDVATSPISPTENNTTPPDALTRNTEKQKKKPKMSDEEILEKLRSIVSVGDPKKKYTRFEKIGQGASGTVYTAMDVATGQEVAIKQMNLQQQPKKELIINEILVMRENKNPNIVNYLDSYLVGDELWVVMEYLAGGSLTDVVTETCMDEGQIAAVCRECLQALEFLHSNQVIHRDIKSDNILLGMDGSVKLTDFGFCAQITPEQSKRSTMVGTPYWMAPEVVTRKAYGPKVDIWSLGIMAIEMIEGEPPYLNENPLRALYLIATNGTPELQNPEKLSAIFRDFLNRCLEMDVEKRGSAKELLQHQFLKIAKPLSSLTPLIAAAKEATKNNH
- test-name: Inhibition of PAK1 (unknown origin) at 50 nM by Z'LYTE screening method relative to control
Each entry below carries its recorded inhibition.
Report only the number, with the unit % understood.

Check out these entries, answers already filled in.
molecule	inhibition [%]
O=c1c2ccccc2[se]n1-c1nc(Nc2ccccc2)c2nc[nH]c2n1	0
CCN(CC)CCCC(C)Nc1nc(N2Cc3ccccc3C2=O)nc2[nH]cnc12 (stereo not drawn)	2

Exam item: Consider the molecule O=C1c2ccccc2CN1c1nc(N[C@H]2CC[Se]C2)c2nc[nH]c2n1 and give its measured inhibition.
Marked response: 0

====

- experimental-system: CDK1/Cyclin A (Homo sapiens) (UniProt P06493+P20248)
- Sequence (P06493 whole entry, looked up): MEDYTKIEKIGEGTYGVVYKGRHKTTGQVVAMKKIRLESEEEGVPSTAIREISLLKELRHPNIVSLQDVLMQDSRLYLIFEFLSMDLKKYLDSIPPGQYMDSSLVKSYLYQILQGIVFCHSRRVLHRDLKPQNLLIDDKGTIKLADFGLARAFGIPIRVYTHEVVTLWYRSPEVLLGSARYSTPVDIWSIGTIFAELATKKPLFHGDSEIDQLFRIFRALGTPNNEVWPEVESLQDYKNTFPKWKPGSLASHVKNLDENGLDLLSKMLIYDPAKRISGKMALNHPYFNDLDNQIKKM
- Sequence (P20248 whole entry, looked up): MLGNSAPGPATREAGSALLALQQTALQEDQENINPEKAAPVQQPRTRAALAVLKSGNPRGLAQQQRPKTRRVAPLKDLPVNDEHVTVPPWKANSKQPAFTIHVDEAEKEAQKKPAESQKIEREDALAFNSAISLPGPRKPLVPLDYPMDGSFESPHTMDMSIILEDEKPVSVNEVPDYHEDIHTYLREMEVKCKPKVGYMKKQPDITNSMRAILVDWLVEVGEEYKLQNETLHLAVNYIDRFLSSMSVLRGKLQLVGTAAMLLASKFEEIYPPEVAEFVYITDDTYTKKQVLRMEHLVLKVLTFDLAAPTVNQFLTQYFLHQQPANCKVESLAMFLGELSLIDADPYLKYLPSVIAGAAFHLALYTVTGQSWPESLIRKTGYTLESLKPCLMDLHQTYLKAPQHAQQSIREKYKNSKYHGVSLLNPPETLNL
- test-name: Inhibition of CDK1/CyclinA (unknown origin) at 50 nM by Z'LYTE screening method relative to control
- Assay type: protein-complex assay
parameter: inhibition (%)
Report only the number, with the unit % understood.

Check out these entries, answers already filled in.
compound	inhibition / %
O=c1c2ccccc2[se]n1-c1nc(N[C@@H]2C[C@H]3CC[C@@H]2C3)c2nc[nH]c2n1	1
CCCNc1nc(-n2[se]c3ccccc3c2=O)nc2[nH]cnc12	2
CCN(CC)CCCC(C)Nc1nc(-n2[se]c3ccccc3c2=O)nc2[nH]cnc12 (configuration not stated)	3
O=c1c2ccccc2[se]n1-c1nc(N[C@H]2CCOC2)c2nc[nH]c2n1	1
C[C@@H]1[C@H]2C[C@@H](C[C@H]1Nc1nc(-n3[se]c4ccccc4c3=O)nc3[nH]cnc13)C2(C)C	2
O=C1c2ccccc2CN1c1nc(NC2CCCC2)c2nc[nH]c2n1	0
O=c1c2ccccc2[se]n1-c1nc(Nc2ccccc2)c2nc[nH]c2n1	2
O=c1c2ccccc2[se]n1-c1nc(N[C@H]2CC[Se]C2)c2nc[nH]c2n1	0
O=c1c2ccccc2[se]n1-c1nc(NC2CCCCC2)c2nc[nH]c2n1	3
O=C1c2ccccc2CN1c1nc(NC2CCCCC2)c2nc[nH]c2n1	2

Exam item: Consider the compound CCN(CC)CCCC(C)Nc1nc(N2Cc3ccccc3C2=O)nc2[nH]cnc12 (configuration not stated) and give its measured inhibition.
Marked response: 1

Exam item: Can you handle O=C1c2ccccc2CN1c1nc(N[C@H]2CC[Se]C2)c2nc[nH]c2n1 next?
Marked response: 1

====

Each entry below carries its recorded inhibition.
- experimental-system: Ribosomal protein S6 kinase beta-1 (Homo sapiens) (UniProt P23443)
- Sequence (P23443 whole entry, looked up): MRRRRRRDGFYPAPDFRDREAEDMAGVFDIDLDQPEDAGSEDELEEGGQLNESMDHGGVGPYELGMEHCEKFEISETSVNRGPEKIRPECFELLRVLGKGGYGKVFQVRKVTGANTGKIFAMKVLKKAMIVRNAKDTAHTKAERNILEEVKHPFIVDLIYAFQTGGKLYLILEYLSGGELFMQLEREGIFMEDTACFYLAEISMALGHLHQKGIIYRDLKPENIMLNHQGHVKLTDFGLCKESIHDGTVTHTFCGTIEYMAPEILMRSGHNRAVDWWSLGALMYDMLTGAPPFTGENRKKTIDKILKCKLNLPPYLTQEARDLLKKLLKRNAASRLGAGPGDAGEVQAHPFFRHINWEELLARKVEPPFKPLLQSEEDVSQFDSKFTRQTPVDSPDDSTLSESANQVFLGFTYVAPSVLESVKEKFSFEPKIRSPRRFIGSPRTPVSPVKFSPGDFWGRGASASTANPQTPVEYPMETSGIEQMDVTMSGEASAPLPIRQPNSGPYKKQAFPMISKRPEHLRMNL
- test-name: Inhibition of p70S6K (unknown origin) at 50 nM by Z'LYTE screening method relative to control
Report only the number, with the unit % understood.

Check out these entries, answers already filled in.
molecule	reported-result
CCN(CC)CCCC(C)Nc1nc(N2Cc3ccccc3C2=O)nc2[nH]cnc12 (configuration not stated)	1
O=c1c2ccccc2[se]n1-c1nc(N[C@H]2CC[Se]C2)c2nc[nH]c2n1	3
O=C1c2ccccc2CN1c1nc(NC2CCCC2)c2nc[nH]c2n1	1
O=c1c2ccccc2[se]n1-c1nc(N[C@H]2CCOC2)c2nc[nH]c2n1	6
O=C1c2ccccc2CN1c1nc(NC2CCCCC2)c2nc[nH]c2n1	1
O=c1c2ccccc2[se]n1-c1nc(N[C@@H]2C[C@H]3CC[C@@H]2C3)c2nc[nH]c2n1	2

Exam item: Consider the molecule O=c1c2ccccc2[se]n1-c1nc(NC2CCCCC2)c2nc[nH]c2n1 and give its measured inhibition.
Marked response: 1

Exam item: Can you handle C[C@@H]1[C@H]2C[C@@H](C[C@H]1Nc1nc(-n3[se]c4ccccc4c3=O)nc3[nH]cnc13)C2(C)C next?
Marked response: 2

====

- experimental-system: Proto-oncogene tyrosine-protein kinase Src (Homo sapiens)
- test-name: Inhibition of SRC (unknown origin) at 50 nM by Z'LYTE screening method relative to control
parameter: inhibition (%)
Report only the number, with the unit % understood.

Check out these entries, answers already filled in.
molecule	experimental-system	parameter	units-symbol	reported-result
C[C@@H]1[C@H]2C[C@@H](C[C@H]1Nc1nc(-n3[se]c4ccccc4c3=O)nc3[nH]cnc13)C2(C)C	Proto-oncogene tyrosine-protein kinase Src (Homo sapiens)	inhibition	%	0
CCN(CC)CCCC(C)Nc1nc(N2Cc3ccccc3C2=O)nc2[nH]cnc12 (configuration not stated)	Proto-oncogene tyrosine-protein kinase Src (Homo sapiens)	inhibition	%	0

Exam item: Consider the molecule O=c1c2ccccc2[se]n1-c1nc(N[C@H]2CCOC2)c2nc[nH]c2n1 and give its measured inhibition.
Marked response: 3

Exam item: Can you handle O=C1c2ccccc2CN1c1nc(NC2CCCC2)c2nc[nH]c2n1 next?
Marked response: 0

Exam item: Can you handle O=c1c2ccccc2[se]n1-c1nc(NC2CCCCC2)c2nc[nH]c2n1 next?
Marked response: 3

Exam item: Can you handle O=c1c2ccccc2[se]n1-c1nc(N[C@@H]2C[C@H]3CC[C@@H]2C3)c2nc[nH]c2n1 next?
Marked response: 2

Exam item: Can you handle O=C1c2ccccc2CN1c1nc(N[C@H]2CC[Se]C2)c2nc[nH]c2n1 next?
Marked response: 0

Exam item: Can you handle O=c1c2ccccc2[se]n1-c1nc(N[C@H]2CC[Se]C2)c2nc[nH]c2n1 next?
Marked response: 0

Exam item: Can you handle CCCNc1nc(-n2[se]c3ccccc3c2=O)nc2[nH]cnc12 next?
Marked response: 2

Exam item: Can you handle O=C1c2ccccc2CN1c1nc(NC2CCCCC2)c2nc[nH]c2n1 next?
Marked response: 5

Exam item: Can you handle CCN(CC)CCCC(C)Nc1nc(-n2[se]c3ccccc3c2=O)nc2[nH]cnc12 (configuration not stated) next?
Marked response: 0

Exam item: Can you handle O=c1c2ccccc2[se]n1-c1nc(Nc2ccccc2)c2nc[nH]c2n1 next?
Marked response: 1

The values you see were collected from ChEMBL document CHEMBL5154740.
